Catalogue of TGI values
Tested on: MCF7 breast
Assay: NCI tumour cell line growth inhibition, 48 h
Hi! Could you send only the number? It should be in µM, unit omitted.

Consider the reported TGI for these molecules:
- molecule: "COc1ccc(Nc2ccnc3cc(Cl)ccc23)cc1CN(CCCl)CCCl"
  value_type: "TGI"
  test_value: 6.42
- molecule: "CCN(CC)Cc1cc(Nc2c3ccc(Cl)cc3nc3c(C)cccc23)ccc1O"
  value_type: "TGI"
  test_value: 2.32
- molecule: "O=C1CCc2c(sc3ncnc(Nc4cccc(Br)c4)c23)C1"
  value_type: "TGI"
  test_value: 22.3
- molecule: "CN(C)CCSc1nccc(-c2ccc(-c3ccnc(SCCN(C)C)n3)s2)n1"
  value_type: "TGI"
  test_value: 16.9
- molecule: "O=C(c1nc2ccccc2[nH]1)C1C(c2cccc([N+](=O)[O-])c2)C2CC3CCCCC3N2[C@@]12C(=O)Nc1cc(Cl)ccc12 (some centres undefined)"
  value_type: "TGI"
  test_value: 7.11

Input: # lookup: TGI of CC(C)(CO)Nc1c(O)c2c(c(O)c1Cl)C(=O)C=CC2=O
Output: 2.65

###

Tested on: HOP-62 NSCLC
Experiment: NCI tumour cell line growth inhibition, 48 h
Catalogue of TGI values
Hi! Could you send only the number? It should be in µM, unit omitted.

Input: # lookup: TGI of COc1cc(C2CC(c3cc(Cl)c(C)cc3O)=NN2c2ccc(S(N)(=O)=O)cc2)cc(OC)c1OC (centres undefined)
Output: 4.56

Input: # iterate: CN1CCN(C2CC(=O)c3c(Cl)sc(Cl)c32)CC1 (centres undefined)
Output: 42.6

Input: # iterate: CC(=O)N1C(=O)/C(=C\C(=O)c2ccc(Cl)cc2)c2ccccc21
Output: 41.2

Input: # iterate: O=C(CSCC(=O)N/N=C\c1cccc(Br)c1)N/N=C\c1cccc(Br)c1
Output: 31.7

Input: # iterate: COc1ccc(Nc2ccnc3cc(Cl)ccc23)cc1CN(CCCl)CCCl
Output: 4.01

Input: # iterate: O=C(Nc1ccc(Oc2cccc(Cl)c2)c(Cl)c1)c1cccnc1
Output: 25.1

###

System: SK-MEL-28 melanoma
Test: NCI tumour cell line growth inhibition, 48 h; in the data active means GI50 below about 0.43 µM; inactive means the rest
Parameter call: string, one of true = active, false = inactive

Would you please look over these solved cases?
- molecule: "Cc1cccc(Cc2cnc(NC(=O)/C=C/c3ccco3)s2)c1"
  group: "false"
- molecule: "NC(=S)c1cn(C2OC(CO)C(O)C2O)c2ncnc(N)c12 (centres undefined)"
  group: "true"
- molecule: "CN1CCN(Cc2ccc(NC(=O)c3cncc(C#Cc4cncc5[nH]ncc45)c3)cc2C(F)(F)F)CC1"
  group: "true"
- molecule: "Cn1ccnc1C(=O)/C=C/c1ccc(CC(=O)Nc2cc(F)c(F)c(F)c2)cc1"
  group: "false"
- molecule: "O=C(c1nc2ccccc2[nH]1)C1C(c2cccc([N+](=O)[O-])c2)C2CC3CCCCC3N2[C@@]12C(=O)Nc1cc(Cl)ccc12 (some centres undefined)"
  group: "false"

Input: Write down the call the test reported for this molecule. Item: COC(=O)C12CC(NC(=O)c3csc([C@@H](C[C@H](C(C)C)N(C)C(=O)[C@@H](NC(=O)[C@H]4CCCCN4C)C(C)C)OC(C)=O)n3)(C1)C2
Output: false

Input: # iterate: O=C(N/N=C\c1cc(Br)cc(Br)c1O)N/N=C/c1cc(Br)cc(Br)c1O
Output: false

Input: # iterate: CCN(CC)Cc1cc(Nc2c3ccc(Cl)cc3nc3c(C)cccc23)ccc1O
Output: false

Input: # iterate: Clc1ccc2c(NCCNc3nc(Cl)nc4ccccc34)ccnc2c1
Output: false
